Each recorded value in this set is attributed to patent US12043632B2.

- experimental-system: JAK2 (JH1domain-catalytic, Y1007F,Y1008F) kinase (Homo sapiens, UniProt O60674, Y1007F/Y1008F)
- Construct: JAK2 (JH1domain-catalytic, Y1007F,Y1008F) kinase was expressed as N-terminal fusion
- Sequence (O60674 849-1124 Y1007F/Y1008F limits assumed): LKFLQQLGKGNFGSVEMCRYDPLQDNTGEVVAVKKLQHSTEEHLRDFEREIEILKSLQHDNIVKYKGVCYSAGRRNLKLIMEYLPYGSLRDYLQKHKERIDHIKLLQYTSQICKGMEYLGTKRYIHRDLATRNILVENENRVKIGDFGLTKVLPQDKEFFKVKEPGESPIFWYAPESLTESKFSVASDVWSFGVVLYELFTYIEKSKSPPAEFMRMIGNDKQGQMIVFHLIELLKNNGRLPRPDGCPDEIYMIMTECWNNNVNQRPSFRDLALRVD
- assay-overview: JAK2 JH1 Domain Binding Assay
- measurement-conditions: qPCR readout
assay-metric: Kd

- compound: "COc1c(Oc2cnn3ccncc23)cnc2nc(Nc3cc(C4CC4)cn([C@@H]4CC[C@H]4O)c3=O)n(C)c12 (single isomer, unassigned) [Example I-110-b]"
  Kd: "10 to 50 nM"
- compound: "CN1CC[C@H](n2nc(Nc3nc4ncc(Oc5cnn6ccncc56)c(Cl)c4n3C)cc2C(C)(C)C)C1 [Example I-31]"
  Kd: "< 10 nM"
- compound: "Cn1c(C#N)c(C(F)(F)F)cc(Nc2nc3ncc(Oc4cnn5ccncc45)c(Cl)c3n2C)c1=O [Example I-200]"
  Kd: "10 to 50 nM"
- compound: "COCc1n[nH]c2ncc(Oc3cnc4nc(Nc5cc6n(n5)CCCC6(F)F)n(C)c4c3C#N)cc12 [Example I-399]"
  Kd: "< 10 nM"
- compound: "Cn1c(Nc2cc(C(C)(C)C)n([C@@H]3COC[C@H]3O)n2)nc2ncc(Oc3cnn4ccnc4c3)c(Cl)c21 (single isomer, unassigned) [Example I-24]"
  Kd: "50 to 1000 nM"
- compound: "[2H]C([2H])([2H])n1cc(C(F)(F)F)cc(Nc2nc3ncc(Oc4cnn5cc(NC)ncc45)c(Cl)c3n2C)c1=O [Example I-325]"
  Kd: "10 to 50 nM"
- compound: "COc1c(Oc2cnn3ccncc23)cnc2nc(Nc3cc(C4CC4)cn(C4CCOCC4)c3=O)n(C)c12 [Example I-67]"
  Kd: "< 10 nM"
- compound: "CNc1nccn2ncc(Oc3cnc4nc(Nc5cc(CN6CC[C@@H](OC)C6)cc(C(F)(F)F)c5)n(C)c4c3Cl)c12 [Example I-250]"
  Kd: "10 to 50 nM"

Query: Entry CNc1nccn2ncc(Oc3cnc4nc(Nc5cc(OC6CCN(C)CC6)cc(C(F)(F)F)c5)n(C)c4c3Cl)c12 [Example I-227] : reported Kd = ?
Response: 10 to 50 nM

Query: Entry Cn1c(F)c(C2CC2)cc(Nc2nc3ncc(Oc4cnn5ccncc45)c(Cl)c3n2C)c1=O [Example I-266] : reported Kd = ?
Response: < 10 nM

Query: Entry COc1c(Oc2cnn3ccncc23)cnc2nc(Nc3cc(C(C)(C)C)n([C@@H]4CCC[C@@H]4O)n3)n(C)c12 (single isomer, unassigned) [Example I-69-b] : reported Kd = ?
Response: 10 to 50 nM

Query: Entry Cn1c(Nc2cc(C3CC3)cn([C@@H]3CCCOC3)c2=O)nc2ncc(Oc3cnn4ccncc34)c(Cl)c21 (single isomer, unassigned) [Example I-73-b] : reported Kd = ?
Response: < 10 nM

Query: Entry Cn1c(Nc2cc(C(C)(C)C)n([C@@H]3CCOC3)n2)nc2ncc(Oc3cnn4cnnc4c3)c(Cl)c21 [Example I-15] : reported Kd = ?
Response: 50 to 1000 nM

Query: Entry CNc1nccn2ncc(Oc3cnc4nc(Nc5cc(C(C)(C)C)n([C@@H]6CCN(C)C6)n5)n(C)c4c3Cl)c12 [Example I-252] : reported Kd = ?
Response: 10 to 50 nM

Query: Entry Cc1nc(Nc2nc3ncc(Oc4cnn5ccncc45)c(Cl)c3n2C)nc(C)c1C1CCCC1 [Example I-253] : reported Kd = ?
Response: < 10 nM

Query: Entry CNc1cn2ncc(Oc3cnc4nc(Nc5cc(O[C@@H]6CCN(C)C6)cc(C(F)(F)F)c5)n(C)c4c3Cl)c2cn1 [Example I-315] : reported Kd = ?
Response: < 10 nM

Query: Entry CNc1nccn2ncc(Oc3cnc4nc(Nc5cc(C(F)(F)F)cn(C)c5=O)n(C)c4c3Cl)c12 [Example I-128] : reported Kd = ?
Response: < 10 nM

Query: Entry Cn1c(Nc2cc(C3CC3)cn([C@@H]3CC[C@@H]3O)c2=O)nc2ncc(Oc3cnn4ccncc34)c(Cl)c21 (single isomer, unassigned) [Example I-98-a] : reported Kd = ?
Response: < 10 nM

Query: Entry CNc1cn2ncc(Oc3cnc4nc(Nc5cc(C6CC6)cn(C)c5=O)n(C)c4c3Cl)c2cn1 [Example I-312] : reported Kd = ?
Response: < 10 nM

Query: Entry CNc1nccn2ncc(Oc3cnc4nc(Nc5cc6c(c(C(F)(F)F)c5)C(C)(C)N(C)C6=O)n(C)c4c3C#N)c12 [Example I-240] : reported Kd = ?
Response: 50 to 1000 nM

Query: Entry Cn1c(Nc2cc(CN3CC[C@@H](O)C3)cc(C(F)(F)F)c2)nc2ncc(Oc3cnn4ccncc34)c(Cl)c21 [Example I-204] : reported Kd = ?
Response: < 10 nM

Query: Entry Cn1c(Nc2cc(C(F)(F)F)cn([C@H]3CC[C@@H]3O)c2=O)nc2ncc(Oc3cnn4ccncc34)c(Cl)c21 (single isomer, unassigned) [Example I-105-a] : reported Kd = ?
Response: < 10 nM

Query: Entry CNc1cn2ncc(Oc3cnc4nc(Nc5ccc(CN6CCC(F)(F)C6)c(C(F)(F)F)c5)n(C)c4c3Cl)c2cn1 [Example I-326] : reported Kd = ?
Response: 50 to 1000 nM

Query: Entry CNc1nccn2ncc(Oc3cnc4nc(Nc5cc(CN6CCCC6)cc(C(F)(F)F)c5)n(C)c4c3Cl)c12 [Example I-284] : reported Kd = ?
Response: 10 to 50 nM

Query: Entry CNc1cn2ncc(Oc3cnc4nc(Nc5cc(C(F)(F)F)cn([C@H]6CCCOC6)c5=O)n(C)c4c3Cl)c2cn1 (single isomer, unassigned) [Example I-352-a] : reported Kd = ?
Response: 10 to 50 nM

Query: Entry CN1C[C@H](F)[C@@H](n2nc(Nc3nc4ncc(Oc5cnn6ccncc56)c(Cl)c4n3C)cc2C(C)(C)C)C1 (single isomer, unassigned) [Example I-267-b] : reported Kd = ?
Response: 50 to 1000 nM
